Recorded values, source patent US20140056903A1.

- TARGET_ENTITY: T1, human GFRα3 expressed with a C-terminal myc-myc-hexahistidine tag (human, UniProt O60609 32-374, biotinylated (sites not given) in ELISA format 2 and in the Octet cross-competition; not in SPR)
- T1 construct: also called hGFRα3-mmh; hGFRα3-mmH
- ASSAY_NAME: SPR, Ab captured, 37C
READOUT_NAME: koff (s⁻¹)
Report as a plain number; the unit s⁻¹ is understood.

These solved cases illustrate the format of a correct answer.
**Q:** Which koff value belongs to H4H2357S (antibody, human IgG4, V domains shown, human IgG4 Fc (H4H)) VH: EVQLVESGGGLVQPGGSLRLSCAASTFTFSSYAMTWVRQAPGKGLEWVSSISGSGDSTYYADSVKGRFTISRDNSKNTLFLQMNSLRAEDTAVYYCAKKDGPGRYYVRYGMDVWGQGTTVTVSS VL: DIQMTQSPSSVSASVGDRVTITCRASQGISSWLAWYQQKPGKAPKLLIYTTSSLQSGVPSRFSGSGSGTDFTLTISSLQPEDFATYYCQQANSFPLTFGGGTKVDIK ?
**A:** 0.0021

**Q:** Next: H4H2293P (antibody, human IgG4, V domains shown, human IgG4 Fc (H4H)) VH: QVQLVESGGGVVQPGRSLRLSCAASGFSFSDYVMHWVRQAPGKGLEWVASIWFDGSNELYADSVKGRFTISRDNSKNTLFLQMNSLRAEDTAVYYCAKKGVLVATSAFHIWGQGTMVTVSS VL: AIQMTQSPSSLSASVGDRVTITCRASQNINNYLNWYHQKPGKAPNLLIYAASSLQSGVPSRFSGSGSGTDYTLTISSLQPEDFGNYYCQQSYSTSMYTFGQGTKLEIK
**A:** 0.000244

The record that follows has no koff shown yet.
**Q:** Which koff value belongs to H4H2354S (antibody, human IgG4, V domains shown, human IgG4 Fc (H4H); also called H4H2354S-1) VH: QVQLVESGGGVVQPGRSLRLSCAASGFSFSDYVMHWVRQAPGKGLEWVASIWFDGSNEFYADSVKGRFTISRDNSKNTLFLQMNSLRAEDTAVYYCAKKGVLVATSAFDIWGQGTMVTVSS VL: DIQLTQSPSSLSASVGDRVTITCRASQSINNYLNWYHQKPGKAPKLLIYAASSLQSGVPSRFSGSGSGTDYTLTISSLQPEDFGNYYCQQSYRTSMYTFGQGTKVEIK ?
**A:** 0.000649
